These measurements were taken from PubChem BioAssay (NCI).

system: TK-10 renal; test: NCI tumour cell line growth inhibition, 48 h
As shown below, each of these compounds has a reported TGI value.
Measured parameter: TGI

Compound | System under test | Measured parameter | Assay value
Nc1ncnc2c1ncn2C1OC(CSCC(F)(F)F)C(O)C1O (stereo unspecified) | TK-10 renal | TGI | > 100 µM
O=C1C=CC(=O)c2c1ccc1c3ccccc3n(Cc3ccc([N+](=O)[O-])cc3)c21 | TK-10 renal | TGI | > 100 µM
CC12CCC(CC(=O)/C1=C(/Br)I)C2(C)C (stereo unspecified) | TK-10 renal | TGI | 32.9 µM
CN(C)c1cc2ccccc2oc1=O | TK-10 renal | TGI | > 100 µM
O=[N+]([O-])c1ccccc1OCCOc1ccccc1[N+](=O)[O-] | TK-10 renal | TGI | > 100 µM
COC(=O)C1(NC(=O)C(CC(=O)OCc2ccccc2)NC(=O)OCc2ccccc2)CCCCCC1 (stereo unspecified) | TK-10 renal | TGI | > 100 µM

* * *

As shown below, each of these compounds has a reported TGI value.
system: HOP-62 NSCLC; assay: NCI tumour cell line growth inhibition, 48 h

Compound | TGI
Nc1ncnc2c1ncn2C1OC(CSCC(F)(F)F)C(O)C1O (stereo not given) | > 100 µM
Cc1cc([NH-])c([NH-])cc1C.[Cl][Pt+2][Cl] | > 77 µM
CCOC(=O)Cc1nc2ccc3c(c2[nH]c1=O)C(=O)c1ccccc1C3=O | > 100 µM
CC(C)(C)c1ccc(OCCOc2ccc(C(C)(C)C)cc2N)c(N)c1 | > 100 µM
O=[N+]([O-])c1ccccc1OCCOc1ccccc1[N+](=O)[O-] | > 100 µM
CC12CCC(CC(=O)/C1=C(/Br)I)C2(C)C (stereo not given) | 32.1 µM
c1ccc(-c2csc3c4ccccc4c4ccccc4[n+]23)cc1 | 20.7 µM
COc1ccc2c(c1)C(=O)/C(=C/c1cccc(OCC(=O)c3ccccc3)c1)CC2 | > 100 µM
N=C1C(=N)c2ccccc2-c2ccccc21.[Cl-].[Ru+2].c1ccc(-c2ccccn2)nc1.c1ccc(-c2ccccn2)nc1 | > 100 µM
COC(=O)Cc1cc(O)c2c(c1O)C(=O)c1ccccc1C2=O | 63.3 µM

* * *

tested on: SK-MEL-5 melanoma; assay: NCI tumour cell line growth inhibition, 48 h
As shown below, each of these compounds has a reported TGI value.

Compound | Inequality symbol | TGI [µM]
C/C(=N/O)c1cccc(Nc2cc(-n3nnc4ccccc43)nc3ccccc23)c1 | = | 13.7
FC(F)(F)c1cccc(-c2nc3nc(Cl)c(Cl)nc3[nH]2)c1 | = | 3.16
O=C1[C@H](O)[C@@H]2C(O)O[C@H]3[C@@H]2N1C[C@H]3[Si](c1ccccc1)(c1ccccc1)c1ccccc1 (some centres undefined) | > | 100
NC(=O)Nc1c(Cl)cc(S(N)(=O)=O)cc1Cl | > | 100
CC(=O)c1c(-c2cccc3ccccc23)c(C#N)c(=S)n(C2OC(CO)C(O)C(O)C2O)c1C (centres undefined) | > | 100
CSc1ncc2c(n1)C(C#N)C1Sc3ccccc3N1C2=O (centres undefined) | > | 100
O=[N+]([O-])c1ccccc1OCCOc1ccccc1[N+](=O)[O-] | > | 100
N#CC(C#N)=C/C=C(\Cl)c1ccc(Cl)cc1 | = | 11.5
CCc1n[nH]c(=O)n1CCCCCCCCCCCCn1c(CC)n[nH]c1=O | = | 32.8
